targetDesc: human Aurora B (Homo sapiens (Human))
Sequence (Q96GD4 whole entry): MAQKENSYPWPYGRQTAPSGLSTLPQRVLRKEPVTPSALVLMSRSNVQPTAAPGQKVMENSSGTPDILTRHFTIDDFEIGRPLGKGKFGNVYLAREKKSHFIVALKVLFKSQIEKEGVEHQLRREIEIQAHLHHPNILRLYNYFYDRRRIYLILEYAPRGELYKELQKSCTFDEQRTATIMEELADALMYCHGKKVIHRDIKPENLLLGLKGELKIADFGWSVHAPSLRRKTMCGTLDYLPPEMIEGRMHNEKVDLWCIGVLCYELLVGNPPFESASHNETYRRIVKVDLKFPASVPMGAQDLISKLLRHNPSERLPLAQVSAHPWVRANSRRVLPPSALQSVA
Sequence (Q9NQS7 803-916 partner): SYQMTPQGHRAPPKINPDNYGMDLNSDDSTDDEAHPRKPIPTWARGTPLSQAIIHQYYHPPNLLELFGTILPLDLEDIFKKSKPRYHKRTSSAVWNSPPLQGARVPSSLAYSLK
measurementNotes: Measurement of Aurora B kinase activity
Assay type: biochemical
conditionSet: ATP 40 μM, 60 minutes
Experimental: The inhibitory activities of a test compound against Aurora A and Aurora B were measured according to the following method. The concentration of the compound at which 50% of the phosphorylation reaction was suppressed was defined as IC50 value (nM).
measuredProperty: IC50 (nM)

Check out these entries, answers already filled in.
[
  {
    "compound": "COc1ccc(CC2(C(=O)O)CCN(C(=O)c3cccc(Cl)c3F)CC2)nc1Nc1cc(C)[nH]n1 [Production Example 11]",
    "unitsSymbol": "nM",
    "IC50": 930
  },
  {
    "compound": "Cc1cc(Nc2nc(CC3(C(=O)O)CCN(C(=O)c4cccc(Cl)c4Cl)CC3)ccc2F)n[nH]1 [Production Example 1]",
    "unitsSymbol": "nM",
    "IC50": 140
  },
  {
    "compound": "Cc1cc(Nc2nc(CC3(C(=O)NC4CC4)CCN(C(=O)c4cccc(Cl)c4F)CC3)ccc2F)n[nH]1 [Production Example 17]",
    "unitsSymbol": "nM",
    "IC50": 900
  },
  {
    "compound": "Cc1cc(Nc2nc(CC3(C(=O)N4CCC4)CCN(C(=O)c4cccc(Cl)c4F)CC3)ccc2F)n[nH]1 [Production Example 19]",
    "unitsSymbol": "nM",
    "IC50": 880
  }
]

I = Cc1cc(Nc2nc(CC3(C(=O)O)CCN(C(=O)c4cccc(Cl)c4F)CC3)ccc2Cl)n[nH]1 [Production Example 12]
II = Cc1cc(Nc2nc(CC3(c4noc(C)n4)CCN(C(=O)c4cccc(Cl)c4F)CC3)ccc2F)n[nH]1 [Production Example 22]
Exercise: Could you determine which record has the numerically smaller IC50? Candidates: I and II Lab note: record the label of whichever item you select.
Key: I
(I: 260 nM, II: 380 nM)

* * *

Let's go through some recorded IC50 values for human Aurora A (Homo sapiens (Human)) together.
measuredProperty: IC50 (nM)

1 = Cc1cc(Nc2nc(CC3(C(=O)N4CCC4)CCN(C(=O)c4cccc(Cl)c4F)CC3)ccc2F)n[nH]1 [Production Example 19]
2 = Cc1cc(Nc2nc(CC3(C(=O)O)CCN(C(=O)c4cccc(Cl)c4F)CC3)ccc2F)n[nH]1 [Production Example 13]
3 = Cc1cc(Nc2nc(CC3(c4nnc(C)o4)CCN(C(=O)c4cccc(Cl)c4F)CC3)ccc2F)n[nH]1 [Production Example 28]
Exercise: List the molecules shown above again, sorted by falling IC50 values. Write out the labels following the order that was asked for.
Key: 1, 3, 2
(1: 1 nM, 3: 0.7 nM, 2: 0.4 nM)

A = COc1ccc(CC2(C(=O)O)CCN(C(=O)c3cccc(Cl)c3F)CC2)nc1Nc1cc(C)[nH]n1 [Production Example 11]
B = CNC(=O)C1(Cc2ccc(F)c(Nc3cc(C)[nH]n3)n2)CCN(C(=O)c2cccc(Cl)c2F)CC1 [Production Example 14]
Exercise: Could you determine which record has the numerically smaller IC50? Candidates: A and B Lab note: record the label of whichever item you select.
Key: A

* * *

targetDesc: human Aurora A (Homo sapiens (Human))
Sequence (O14965 whole entry): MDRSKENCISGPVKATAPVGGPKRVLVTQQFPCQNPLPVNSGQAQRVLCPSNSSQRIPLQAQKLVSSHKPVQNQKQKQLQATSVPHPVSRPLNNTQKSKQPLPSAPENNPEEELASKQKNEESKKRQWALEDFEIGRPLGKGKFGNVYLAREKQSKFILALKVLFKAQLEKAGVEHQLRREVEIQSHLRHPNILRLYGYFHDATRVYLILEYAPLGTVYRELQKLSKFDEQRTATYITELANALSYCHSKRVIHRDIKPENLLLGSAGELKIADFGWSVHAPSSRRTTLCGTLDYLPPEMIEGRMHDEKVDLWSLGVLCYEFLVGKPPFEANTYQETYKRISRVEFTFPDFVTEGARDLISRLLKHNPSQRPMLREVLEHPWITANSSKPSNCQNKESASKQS
pIC50: −log10 of the molar value.
measuredProperty: pIC50

[
  {
    "compound": "Cc1cc(Nc2nc(CC3(c4ncon4)CCN(C(=O)c4cccc(Cl)c4F)CC3)ccc2F)n[nH]1 [Production Example 24]",
    "measuredProperty": "pIC50",
    "reportedValue": 9.30
  },
  {
    "compound": "Cc1cc(Nc2nc(CC3(C(=O)O)CCN(C(=O)c4cccc(C(F)(F)F)c4F)CC3)ccc2F)n[nH]1 [Production Example 2]",
    "measuredProperty": "pIC50",
    "reportedValue": 9.30
  },
  {
    "compound": "Cc1cc(Nc2nc(CC3(C(=O)O)CCN(C(=O)c4cccc(Cl)c4Cl)CC3)ccc2F)n[nH]1 [Production Example 1]",
    "measuredProperty": "pIC50",
    "reportedValue": 9.40
  }
]

FYI, the data here is from patent US9012475B2.
